test system: A498 renal; test: NCI tumour cell line growth inhibition, 48 h
Observation type: TGI (µM)
A number alone suffices; assume µM.

Below are worked cases with known answers.
CC1=CC(=O)c2cccc(O)c2C1=O | 33.5
C=CCCC12CCCC(=O)C1Sc1ccc3ccccc3c12 (stereo not given) | 26.1

Now for the compound whose TGI we want.
// query For COc1cccc(NC(=O)c2ccc(C(F)(F)F)nc2Nc2ccc(Cl)cc2C)c1 , what is its reported TGI?
// result 11.9

---

system: HS 578T breast; assay: NCI tumour cell line growth inhibition, 48 h
Observation type: TGI

NC(Cc1ccc2oc3cc(=O)c4ccccc4c-3nc2c1)C(=O)O (stereo not given) | 59.6 µM
COc1cccc2c1[C@H](OC)[C@]13O[C@@]1(C2=O)[C@H](O)[C@H](C)[C@@](O)(C(=O)[C@@H]1O[C@H]1C)[C@@H]3O | 0.618 µM

Consider the record given below.
// query Looking for the measured TGI of Cc1nc(SCC(=O)Nc2ccccc2)c2sc(=S)n(-c3ccccc3)c2n1 , can you help?
// result > 10 µM
